Cited source for all entries: patent US20250161282A1

assay: Phase I study Part 2, multiple ascending doses (MAD), BID oral fasted; type: in vivo, human; conditions: both sexes, human, plasma; multiple oral doses 80 mg for 5 days; read-out: median Tmax
quantity-measured: Tmax at 5 days (h)
Express it in h; write the number only.

Enquiry: Consider the molecule CC(NC(=O)OC[n+]1cccc(C(=O)NCCO[N+](=O)[O-])c1)C1CCCCC1 (stereo in doubt) and give its measured Tmax at 5 days.
Return: 1

----------
assay: Phase I study Part 2, multiple ascending doses (MAD), BID oral fasted; format: in vivo, human; conditions: both sexes, human, plasma, oral; Day 5, both doses; reliable in 3 out of the 10 profiles; read-out: individual plasma half-life
quantity-measured: half-life at 5 day

Enquiry: # input molecule: CC(NC(=O)OC[n+]1cccc(C(=O)NCCO[N+](=O)[O-])c1)C1CCCCC1 (stereo in doubt) ; wanted: its half-life at 5 day
Return: 1.11 to 1.42 h
